target: F protein of respiratory syncytial virus (RSV-Long strain), on infectious virus (respiratory syncytial virus (RSV-Long …, UniProt P12568 26-574)); assay: cell-based or functional assay
Parameter: Mean IC50 µg/ml, RSV microneutralization. Scope: all listed entries.

binder	Mean IC50 µg/ml, RSV microneutralization
Clone 14 (Fab) (Fab, V domains shown) VH: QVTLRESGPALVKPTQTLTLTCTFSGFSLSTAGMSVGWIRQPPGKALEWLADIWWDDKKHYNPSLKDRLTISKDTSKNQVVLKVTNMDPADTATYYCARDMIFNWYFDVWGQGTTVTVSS VL: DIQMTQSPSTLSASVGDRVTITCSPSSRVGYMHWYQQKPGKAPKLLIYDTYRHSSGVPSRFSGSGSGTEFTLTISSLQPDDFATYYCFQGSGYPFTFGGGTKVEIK	0.12 µg/mL
Clone 13 (Fab) (Fab, V domains shown) VH: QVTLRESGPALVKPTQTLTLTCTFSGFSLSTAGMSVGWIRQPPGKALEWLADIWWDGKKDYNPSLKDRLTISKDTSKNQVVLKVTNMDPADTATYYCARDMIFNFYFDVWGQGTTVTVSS VL: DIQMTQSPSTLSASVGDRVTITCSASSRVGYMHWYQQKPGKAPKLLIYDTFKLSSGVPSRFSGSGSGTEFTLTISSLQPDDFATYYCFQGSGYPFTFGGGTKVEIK	0.0287 µg/mL
Clone 12 (Fab) (Fab, V domains shown) VH: QVTLRESGPALVKPTQTLTLTCTFSGFSLSTAGMSVGWIRQPPGKALEWLADIWWDGKKHYNPSLKDRLTISKDTSKNQVVLKVTNMDPADTATYYCARDMIFNFYFDVWGQGTTVTVSS VL: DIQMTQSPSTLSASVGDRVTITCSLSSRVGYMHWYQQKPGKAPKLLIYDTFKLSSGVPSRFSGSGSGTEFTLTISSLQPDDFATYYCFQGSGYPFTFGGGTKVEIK	0.157 µg/mL
